measurementTarget: T1, 4H429-AA
T1 chain: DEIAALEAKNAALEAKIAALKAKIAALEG
assayOverview: two-hybrid library CCmax;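 further: natural log of median RNA to DNA barcode read ratio; higher means stronger binding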
assaySetup: mean of both orientations
measure: interaction score

Guide cases for interaction score, answers given:
>  <binder>
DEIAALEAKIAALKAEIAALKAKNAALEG [4H335-AA]

>  <measure>
interaction score

>  <experimentalValue>
-0.695

$$$$
>  <binder>
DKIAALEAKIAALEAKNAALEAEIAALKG [4H2354-AA]

>  <measure>
interaction score

>  <experimentalValue>
-1.58

$$$$
>  <binder>
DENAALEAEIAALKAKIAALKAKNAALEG [4H1135-AA]

>  <measure>
interaction score

>  <experimentalValue>
-1.27

$$$$
>  <binder>
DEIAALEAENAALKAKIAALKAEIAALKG [4H234-AA]

>  <measure>
interaction score

>  <experimentalValue>
-1.25

$$$$

P: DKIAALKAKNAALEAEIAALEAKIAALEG [4H2949-AA]
Q: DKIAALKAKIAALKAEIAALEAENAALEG [4H2883-AA]
Higher interaction score: P or Q ? Please reply using the label of the selected record.
P
(P: 1.91, Q: -0.571)
